Cited source for all entries: paper PMC4498294

# subject.of.test: MurE (Rv2158c) protein of M. tuberculosis H37Rv (Mycobacterium tuberculosis, UniProt P9WJL3)
# Sequence (P9WJL3 whole entry, looked up): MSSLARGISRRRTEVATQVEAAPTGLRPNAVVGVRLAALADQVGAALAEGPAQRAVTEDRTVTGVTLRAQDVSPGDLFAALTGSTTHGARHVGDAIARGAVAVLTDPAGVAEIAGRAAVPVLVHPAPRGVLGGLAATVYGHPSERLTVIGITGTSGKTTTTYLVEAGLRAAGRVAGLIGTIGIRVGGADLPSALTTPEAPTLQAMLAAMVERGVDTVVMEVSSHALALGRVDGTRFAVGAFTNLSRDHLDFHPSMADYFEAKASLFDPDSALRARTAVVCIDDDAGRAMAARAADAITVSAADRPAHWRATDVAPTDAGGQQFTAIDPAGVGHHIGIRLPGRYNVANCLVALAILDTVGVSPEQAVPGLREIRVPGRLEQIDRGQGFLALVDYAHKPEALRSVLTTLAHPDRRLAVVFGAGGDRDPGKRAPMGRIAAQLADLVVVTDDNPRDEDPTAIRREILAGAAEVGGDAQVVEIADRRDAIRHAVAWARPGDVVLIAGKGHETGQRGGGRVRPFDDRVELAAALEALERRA
quantity.kind: IC50

[[record]]
compound = "COc1ccc(I)c2c1C(Cc1ccc3c(c1)OCO3)NCC2 (centres unmarked)"
obs_value = "< 111 µM"

[[record]]
compound = "Oc1ccc(Br)c2c1C(Cc1ccc3c(c1)OCO3)NCC2 (centres unmarked)"
obs_value = "< 111 µM"

[[record]]
compound = "Oc1ccc(Br)c2c1C(c1cccc3c1OCO3)NCC2 (centres unmarked)"
obs_value = "< 111 µM"


Incoming: Name the recorded IC50 of the item Oc1ccc2c(c1)CCNC2c1cccc2c1OCO2 (centres unmarked) in your answer.
Outgoing: > 1000 µM

Incoming: Name the recorded IC50 of the item Oc1ccc2c(c1)CCNC2Cc1ccc2c(c1)OCO2 (centres unmarked) in your answer.
Outgoing: > 1000 µM

====

# Test system: murine macrophage cell line RAW264.7
# test.method.notes: Eukaryotic cell toxicity assay, RAW264.7
# Assay type: cell-based
# experimental.context: Mus musculus; RAW264.7, value in square brackets; read-out: GIC50 RAW264.7
quantity.kind: IC50 (µM)
Field format: number, assumed µM, no unit text.

Incoming: Name the recorded IC50 of the item Nc1ccc2c(c1)CCNC2Cc1ccccc1 (centres unmarked) [Compound 15] in your answer.
Outgoing: 789

Incoming: Name the recorded IC50 of the item COc1ccc(C2NCCc3cc(O)c(O)cc32)cc1 (centres unmarked) [Compound 5] in your answer.
Outgoing: 335

Incoming: Name the recorded IC50 of the item Oc1cc2c(cc1O)C(c1ccccc1O)NCC2 (centres unmarked) [Compound 8] in your answer.
Outgoing: 338

Incoming: Name the recorded IC50 of the item O=C(O)[C@@H]1Cc2cc(O)c(O)cc2[C@@H](Cc2ccccc2)N1 [Compound 11] in your answer.
Outgoing: 291

Incoming: Name the recorded IC50 of the item CN1C[C@H](O)c2cc(O)c(O)cc2[C@H]1c1cccc2c1OCO2 [Compound 32] in your answer.
Outgoing: 574
